System: MRSA KS2
ASSAY PROCEDURE: MIC, broth microdilution, MRSA KS2
Type: cell-based, Staphylococcus aureus
TEST SETTINGS: Staphylococcus aureus MRSA KS2; read-out: MIC
MIC by entry:
Field: numeric (µM). Do not append units.

Some entries whose results are on file:
CN[C@H](CC(C)C)C(=O)N[C@H]1C(=O)N[C@@H](CC(N)=O)C(=O)N[C@H]2C(=O)N[C@H]3C(=O)N[C@H](C(=O)N[C@H](C(=O)NCC(=O)Nc4ccc(OC)cc4)c4cc(O)cc(O)c4-c4cc3ccc4O)[C@H](O)c3ccc(c(Cl)c3)Oc3cc2cc(c3O[C@@H]2O[C@H](CO)[C@@H](O)[C@H](O)[C@H]2O[C@H]2C[C@](C)(N)[C@H](O)[C@H](C)O2)Oc2ccc(cc2Cl)[C@H]1O    0.39
CN[C@H](CC(C)C)C(=O)N[C@H]1C(=O)N[C@@H](CC(N)=O)C(=O)N[C@H]2C(=O)N[C@H]3C(=O)N[C@H](C(=O)N[C@H](C(=O)NCCNC(=O)/C=C/c4ccc(NS(=O)(=O)c5ccc(Cl)cc5Cl)cc4)c4cc(O)cc(O)c4-c4cc3ccc4O)[C@H](O)c3ccc(c(Cl)c3)Oc3cc2cc(c3O[C@@H]2O[C@H](CO)[C@@H](O)[C@H](O)[C@H]2O[C@H]2C[C@](C)(N)[C@H](O)[C@H](C)O2)Oc2ccc(cc2Cl)[C@H]1O    0.20

Enquiry: So what MIC did CNC(CC(C)C)C(=O)NC1C(=O)NC(CC(N)=O)C(=O)NC2C(=O)NC3C(=O)NC(C(=O)NC(C(=O)NCC(=O)Nc4ccc(-c5cn(-c6ccc(C)cc6)nn5)cc4)c4cc(O)cc(O)c4-c4cc3ccc4O)C(O)c3ccc(c(Cl)c3)Oc3cc2cc(c3OC2OC(CO)C(O)C(O)C2OC2CC(C)(N)C(O)C(C)O2)Oc2ccc(cc2Cl)C1O (stereo not drawn) get with MRSA KS2?
Return: 0.20

====

Tested on: human cervix carcinoma (HeLa) cells
ASSAY PROCEDURE: Cytostatic activity, HeLa cell proliferation
Assay type: cell-based
TEST SETTINGS: mean ± SD of three experiments; highest concentration tested 250 µM; 4 days; read-out: Toxicity (IC50) HeLa
Listed here are compounds together with their documented pIC50.
pIC50 here: minus log base 10 of the concentration, concentration in moles per litre.

Record excerpt, results attached:
CN[C@H](CC(C)C)C(=O)N[C@H]1C(=O)N[C@@H](CC(N)=O)C(=O)N[C@H]2C(=O)N[C@H]3C(=O)N[C@H](C(=O)N[C@H](C(=O)NCC(=O)Nc4cccc(F)c4)c4cc(O)cc(O)c4-c4cc3ccc4O)[C@H](O)c3ccc(c(Cl)c3)Oc3cc2cc(c3O[C@@H]2O[C@H](CO)[C@@H](O)[C@H](O)[C@H]2O[C@H]2C[C@](C)(N)[C@H](O)[C@H](C)O2)Oc2ccc(cc2Cl)[C@H]1O    3.67
CCCCC[N+](C)(C)CCCNC(=O)c1ccc(NC(=O)CNC(=O)C2NC(=O)C3NC(=O)C(NC(=O)C4NC(=O)C(CC(N)=O)NC(=O)C(NC(=O)C(CC(C)C)NC)C(O)c5ccc(c(Cl)c5)Oc5cc4cc(c5OC4OC(CO)C(O)C(O)C4OC4CC(C)(N)C(O)C(C)O4)Oc4ccc(cc4Cl)C3O)c3ccc(O)c(c3)-c3c(O)cc(O)cc32)cc1 (centres unmarked)    3.62
CN[C@H](CC(C)C)C(=O)N[C@H]1C(=O)N[C@@H](CC(N)=O)C(=O)N[C@H]2C(=O)N[C@H]3C(=O)N[C@H](C(=O)N[C@H](C(=O)NCC(=O)Nc4ccc(Cl)cn4)c4cc(O)cc(O)c4-c4cc3ccc4O)[C@H](O)c3ccc(c(Cl)c3)Oc3cc2cc(c3O[C@@H]2O[C@H](CO)[C@@H](O)[C@H](O)[C@H]2O[C@H]2C[C@](C)(N)[C@H](O)[C@H](C)O2)Oc2ccc(cc2Cl)[C@H]1O    3.97
CCCCCCCC[N+](C)(C)CCCNC(=O)c1ccc(NC(=O)CNC(=O)C2NC(=O)C3NC(=O)C(NC(=O)C4NC(=O)C(CC(N)=O)NC(=O)C(NC(=O)C(CC(C)C)NC)C(O)c5ccc(c(Cl)c5)Oc5cc4cc(c5OC4OC(CO)C(O)C(O)C4OC4CC(C)(N)C(O)C(C)O4)Oc4ccc(cc4Cl)C3O)c3ccc(O)c(c3)-c3c(O)cc(O)cc32)cc1 (centres unmarked)    3.91
CN[C@H](CC(C)C)C(=O)N[C@H]1C(=O)N[C@@H](CC(N)=O)C(=O)N[C@H]2C(=O)N[C@H]3C(=O)N[C@H](C(=O)N[C@H](C(=O)NCCNC(=O)/C=C/c4ccc(NS(=O)(=O)c5ccc(C)cc5)cc4)c4cc(O)cc(O)c4-c4cc3ccc4O)[C@H](O)c3ccc(c(Cl)c3)Oc3cc2cc(c3O[C@@H]2O[C@H](CO)[C@@H](O)[C@H](O)[C@H]2O[C@H]2C[C@](C)(N)[C@H](O)[C@H](C)O2)Oc2ccc(cc2Cl)[C@H]1O    3.99
CN[C@H](CC(C)C)C(=O)N[C@H]1C(=O)N[C@@H](CC(N)=O)C(=O)N[C@H]2C(=O)N[C@H]3C(=O)N[C@H](C(=O)N[C@H](C(=O)NCC(=O)Nc4ccc(C#Cc5ccccc5)cc4)c4cc(O)cc(O)c4-c4cc3ccc4O)[C@H](O)c3ccc(c(Cl)c3)Oc3cc2cc(c3O[C@@H]2O[C@H](CO)[C@@H](O)[C@H](O)[C@H]2O[C@H]2C[C@](C)(N)[C@H](O)[C@H](C)O2)Oc2ccc(cc2Cl)[C@H]1O    4.62

Enquiry: Would you mind telling me what pIC50 value was observed for C#Cc1ccc(-c2ccc(C(=O)NCCCNC(=O)[C@H]3NC(=O)[C@H]4NC(=O)[C@H](NC(=O)[C@@H]5NC(=O)[C@H](CC(N)=O)NC(=O)[C@H](NC(=O)[C@@H](CC(C)C)NC)[C@H](O)c6ccc(c(Cl)c6)Oc6cc5cc(c6O[C@@H]5O[C@H](CO)[C@@H](O)[C@H](O)[C@H]5O[C@H]5C[C@](C)(N)[C@H](O)[C@H](C)O5)Oc5ccc(cc5Cl)[C@H]4O)c4ccc(O)c(c4)-c4c(O)cc(O)cc43)cc2)cc1 ?
Return: 4.15

Enquiry: What does the data say about its pIC50? Entry: CNC(CC(C)C)C(=O)NC1C(=O)NC(CC(N)=O)C(=O)NC2C(=O)NC3C(=O)NC(C(=O)NC(C(=O)NCC(=O)Nc4ccc(C=Cc5ccc(N)cc5)cc4)c4cc(O)cc(O)c4-c4cc3ccc4O)C(O)c3ccc(c(Cl)c3)Oc3cc2cc(c3OC2OC(CO)C(O)C(O)C2OC2CC(C)(N)C(O)C(C)O2)Oc2ccc(cc2Cl)C1O (centres unmarked)
Return: 3.90

Enquiry: Could you share which pIC50 value was measured for CCCCC#Cc1ccc(NC(=O)CNC(=O)[C@H]2NC(=O)[C@H]3NC(=O)[C@H](NC(=O)[C@@H]4NC(=O)[C@H](CC(N)=O)NC(=O)[C@H](NC(=O)[C@@H](CC(C)C)NC)[C@H](O)c5ccc(c(Cl)c5)Oc5cc4cc(c5O[C@@H]4O[C@H](CO)[C@@H](O)[C@H](O)[C@H]4O[C@H]4C[C@](C)(N)[C@H](O)[C@H](C)O4)Oc4ccc(cc4Cl)[C@H]3O)c3ccc(O)c(c3)-c3c(O)cc(O)cc32)cc1 ?
Return: 3.93

Taken from paper PMC6001238.
